Provenance of the data: patent US9255100B2

Give IC50 for every item shown.
Biological target: N-terminally GST-tagged human full length recombinant Mps-1 kinase (Homo sapiens)
Construct: N-terminally GST-tagged human full length recombinant Mps-1 kinase; purchased Invitrogen, Karslruhe, Germany PV4071
Sequence (P33981 1-857): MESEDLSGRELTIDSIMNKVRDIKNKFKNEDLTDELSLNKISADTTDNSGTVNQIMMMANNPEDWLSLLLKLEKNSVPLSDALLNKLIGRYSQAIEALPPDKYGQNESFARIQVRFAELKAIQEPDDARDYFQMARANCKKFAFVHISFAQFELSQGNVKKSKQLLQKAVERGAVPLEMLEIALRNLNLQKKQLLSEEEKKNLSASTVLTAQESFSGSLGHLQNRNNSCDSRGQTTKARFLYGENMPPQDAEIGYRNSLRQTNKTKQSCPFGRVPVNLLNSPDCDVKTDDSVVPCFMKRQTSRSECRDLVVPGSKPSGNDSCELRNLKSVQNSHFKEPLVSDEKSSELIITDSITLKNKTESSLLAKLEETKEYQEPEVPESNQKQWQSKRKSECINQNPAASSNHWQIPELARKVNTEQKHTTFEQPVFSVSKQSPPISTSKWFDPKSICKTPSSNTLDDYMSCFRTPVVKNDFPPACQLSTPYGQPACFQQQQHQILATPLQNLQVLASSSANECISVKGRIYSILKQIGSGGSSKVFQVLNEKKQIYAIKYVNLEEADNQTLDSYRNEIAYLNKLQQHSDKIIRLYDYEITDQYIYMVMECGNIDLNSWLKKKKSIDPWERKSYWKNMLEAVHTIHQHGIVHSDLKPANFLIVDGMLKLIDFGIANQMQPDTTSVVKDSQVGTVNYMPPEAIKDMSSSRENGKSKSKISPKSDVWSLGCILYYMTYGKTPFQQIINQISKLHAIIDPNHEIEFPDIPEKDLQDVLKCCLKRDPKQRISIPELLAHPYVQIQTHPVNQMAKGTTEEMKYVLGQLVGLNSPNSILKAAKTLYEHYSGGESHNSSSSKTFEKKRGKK
Assay: Mps-1 kinase assay (TR-FRET)
Format: biochemical
Settings: Mps1 IC50 [nM], 10 μM ATP, 1 μM peptide substrate, 60 min at 22° C.
Answers are plain numbers, in nM.

Consider the reported IC50 for these molecules:
smiles	IC50 / nM
Cc1cc(-c2cnc3c(NCCCS(=O)(=O)O)cc(Oc4cccc(F)c4)nn23)ccc1C(=O)NC1CC1	0.2
CC(=O)NCCNc1cc(Oc2cccc(F)c2)nn2c(-c3ccc(C(=O)NC4CC4)c(C)c3)cnc12	0.2
CC(C)CNc1cc(-c2cccc(F)c2)nn2c(-c3ccc(C(=O)NC4CC4)cc3)cnc12	2.7

Now for a further molecule.
So what does the record say about IC50 for Cc1cc(-c2cnc3c(NCC(C)(C)O)cc(Sc4ccc(F)c(F)c4)nn23)ccc1C(=O)NC1CC1 ?
0.8
